System: AGS (gastric cancer cell line with KRAS G12D mutation)
Experiment: Proliferation inhibition measured by CTG, AGS
Type: cell-based
Conditions: 120 h, CellTiter Glo, 120 hours incubation
pIC50: −log10 of the molar value.
Readout Kind: pIC50

Field: example entries. Status: answers known.
C[C@H]1Cc2cncc(F)c2CN1c1nc(OC[C@@H]2CCCN2C)nc2c1CCN(c1cncc3ccccc13)C2	5.00 to 6.00
C[C@@H]1Cc2cncc(F)c2CN1c1nc(OC[C@@H]2CCCN2C)nc2c1CCN(c1cncc3cccc(Cl)c13)C2	≥ 6.00
C[C@@H](CN(C)C)Oc1nc2c(c(N3Cc4c(F)cncc4C[C@@H]3C)n1)CCN(c1cccc3cccc(F)c13)C2	5.00 to 6.00
C[C@H]1Cc2cncc(F)c2CN1c1nc(OC[C@@H]2CCCN2C)nc2cc(-c3cccc4cccc(Cl)c34)ccc12	≥ 6.00

Now for a further compound.
In: Consider the compound C[C@@H]1Cc2cncc(F)c2CN1c1nc(OC[C@@H]2CCCN2C)nc2c1CCN(c1cccc3cccnc13)C2 and give its measured pIC50.
Out: ≥ 6.00

The origin of these recorded values is patent US20230242552A1.
